Recorded melting point for the following molecules

                                   molecule  reported_endpoint  value_reported
0  COc1ccc(-c2ccc(NC(=O)Nc3cccnc3)cc2)cc1S(=O)(=O)NC(CC(=O)O)c1ccccc1 (stereo not drawn)      melting point          188 °C
1  CS(=O)(=O)N[C@@H](Cc1ccc(-c2cccc(Nc3c(NC4CC4)c(=O)c3=O)c2)cc1)C(=O)O      melting point   210 °C (dec.)
2  O=C(O)C[C@@H](NS(=O)(=O)c1cccc(-c2cccc(NC(=O)NCc3cccnc3)c2)c1)c1ccccc1      melting point          126 °C
3  COc1ccc(-c2cccc(NC(=O)NCc3ccc(C(F)(F)F)cc3)c2)cc1S(=O)(=O)NC(CC(=O)O)c1ccccc1 (stereo not drawn)      melting point        > 240 °C
4  CN(CC(=O)O)S(=O)(=O)c1cccc(-c2cccc(NC(=O)Nc3ccncc3)c2)c1      melting point          142 °C
5  COc1ccc(-c2ccc(NC(=O)N=c3[nH]c4ccccc4[nH]3)cc2)cc1S(=O)(=O)NC(CC(=O)O)c1ccccc1 (stereo not drawn)      melting point          209 °C
6  O=C(O)[C@H](Cc1ccc(-c2cccc(CNc3ccccn3)c2)cc1)NS(=O)(=O)C1CC1      melting point        > 240 °C
7  CC1(C)C2CC[C@@]1(CS(=O)(=O)N[C@@H](Cc1ccc(-c3ccc(NC(=O)NCc4ccccn4)cc3)cc1)C(=O)O)C(=O)C2      melting point          202 °C
8  O=C(O)CC(NS(=O)(=O)c1cccc(-c2cccc(NC(=O)NCc3ccccn3)c2)c1)c1cccnc1 (stereo not drawn)      melting point          176 °C
9  CCCNC(=O)Nc1cccc(-c2cccc(CC(NS(=O)(=O)c3c(C)cc(C)cc3C)C(=O)O)c2)c1 (stereo not drawn)      melting point          136 °C

Request: Name the reported melting point value associated with the molecule "Cc1cc(C)c(S(=O)(=O)N[C@@H](Cc2ccc(-c3cccc(N/C(=N/C#N)NCc4ccccn4)c3)cc2)C(=O)O)c(C)c1"
Response: 174 °C (dec.)

Request: Now this one: "COc1ccc(-c2cccc(NC(=O)NC3CC3)c2)cc1S(=O)(=O)NCC(=O)O"
Response: 128 °C

Request: Now this one: N#C/N=C(\NCc1ccccc1)Nc1cccc(-c2cccc(S(=O)(=O)NC(CC(=O)O)c3ccccc3)c2)c1 (stereo not drawn)
Response: 90 °C

Request: Now this one: CCCCNC(=O)Nc1ccc(-c2ccc(OC)c(S(=O)(=O)NC(CC(=O)O)c3ccccc3)c2)cc1 (stereo not drawn)
Response: 125 °C

Request: Now this one: "COc1ccc(-c2cccc(NC(=O)NCc3ccc(C(F)(F)F)cc3)c2)cc1S(=O)(=O)N[C@H](CC(=O)O)c1ccccc1"
Response: 111 °C (dec.)

Request: Now this one: "Cc1cc(C)c(S(=O)(=O)N[C@@H](Cc2ccc(-c3cccc(NC(=O)Nc4nc5ccccc5s4)c3)cc2)C(=O)O)c(C)c1"
Response: 198 °C

Request: Now this one: COc1ccc(-c2cccc(NC(=O)N=c3[nH]c4cc(C)c(C)cc4[nH]3)c2)cc1S(=O)(=O)NC(CC(=O)O)c1ccccc1 (stereo not drawn)
Response: > 240 °C

Request: Now this one: "CN(CC(=O)O)S(=O)(=O)c1cccc(-c2cccc(NC(=O)NC3CC3)c2)c1"
Response: 117 °C
